Values from the supplement of paper PMC11555231

Biological target: PADI4, Q9UM07
Sequence (Q9UM07 whole entry): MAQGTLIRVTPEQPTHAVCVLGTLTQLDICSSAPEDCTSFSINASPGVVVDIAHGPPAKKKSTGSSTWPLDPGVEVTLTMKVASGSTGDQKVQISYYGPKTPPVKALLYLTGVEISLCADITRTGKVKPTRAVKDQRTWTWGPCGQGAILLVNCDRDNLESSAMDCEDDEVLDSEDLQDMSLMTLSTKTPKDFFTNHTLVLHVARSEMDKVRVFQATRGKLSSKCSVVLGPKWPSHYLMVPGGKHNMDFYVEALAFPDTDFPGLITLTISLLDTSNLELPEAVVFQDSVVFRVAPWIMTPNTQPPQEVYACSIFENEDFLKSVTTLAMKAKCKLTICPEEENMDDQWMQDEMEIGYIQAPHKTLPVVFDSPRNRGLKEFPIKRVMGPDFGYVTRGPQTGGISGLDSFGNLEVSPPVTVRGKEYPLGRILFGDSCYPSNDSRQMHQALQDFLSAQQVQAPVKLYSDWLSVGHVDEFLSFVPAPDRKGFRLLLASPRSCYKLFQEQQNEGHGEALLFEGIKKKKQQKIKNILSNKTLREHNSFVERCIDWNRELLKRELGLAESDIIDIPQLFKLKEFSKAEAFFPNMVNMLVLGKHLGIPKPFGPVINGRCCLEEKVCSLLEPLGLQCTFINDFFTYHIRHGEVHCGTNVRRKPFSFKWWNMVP
Test: log2 enrichment score relative to parent PADI4_3 peptide (binding to PADI4); higher = tighter binding than parent
Conditions: CaCl2: 10 mM
Recorded Metric: log2 enrichment score

Lookup: I would be grateful if you could share the reported log2 enrichment score for YRDHHYREPKYCG [PADI4_3_H8E H8E] .
Found: -3.8

Lookup: I would be grateful if you could share the reported log2 enrichment score for YRRHHYRHPKYCG [PADI4_3_D3R D3R] .
Found: -2.94

Lookup: I would be grateful if you could share the reported log2 enrichment score for YIDHHYRHPKYCG [PADI4_3_R2I R2I] .
Found: -1.38

Lookup: I would be grateful if you could share the reported log2 enrichment score for YVDHHYRHPKYCG [PADI4_3_R2V R2V] .
Found: -1.2

Lookup: I would be grateful if you could share the reported log2 enrichment score for YRDHHYGHPKYCG [PADI4_3_R7G R7G] .
Found: -2.58

Lookup: I would be grateful if you could share the reported log2 enrichment score for YRDHHYRHPKKCG [PADI4_3_Y11K Y11K] .
Found: -4.77

Lookup: I would be grateful if you could share the reported log2 enrichment score for YRDHHHRHPKYCG [PADI4_3_Y6H Y6H] .
Found: 0.321

Lookup: I would be grateful if you could share the reported log2 enrichment score for YRDHHYRHPKYCG [PADI4_3_H8H H8H] .
Found: 0
